- TGT: Neuronal acetylcholine receptor subunit alpha-7 (Homo sapiens)
- PROTOCOL SUMMARY: Partial agonist activity at human alpha7 nAChR expressed in xenopus oocytes assessed as induction of PAM-sensitive desensitization at 30 uM by two-electrode voltage clamp electrophysiology relative to acetylcholine
- Assay type: cell-based
Measured fold change (FC) accompanies every entry in the list below.
Answer with a bare number; do not write a unit.

Check out these entries, answers already filled in.
                   structure_smiles  value
0      CC[N+]1(CC)CCN(c2ccccc2C)CC1  0.319
1    CC[N+]1(CC)CCN(c2cccc(O)c2)CC1  0.283
2  CC[N+]1(CC)CCN(c2ccc(C#N)cc2)CC1  0.234
3     CC[N+]1(CC)CCN(c2ccccc2Cl)CC1  0.367
4   CC[N+]1(CC)CCN(c2ccc(Cl)cc2)CC1  0.234

Query :: // returns reported fold change (FC) for input CC[N+]1(CC)CCN(c2ccc3ccccc3c2)CC1
Result :: 0.143

Entry source: ChEMBL document CHEMBL3745606
